Biological target: Yap3 (UniProt P38749)
Sequence: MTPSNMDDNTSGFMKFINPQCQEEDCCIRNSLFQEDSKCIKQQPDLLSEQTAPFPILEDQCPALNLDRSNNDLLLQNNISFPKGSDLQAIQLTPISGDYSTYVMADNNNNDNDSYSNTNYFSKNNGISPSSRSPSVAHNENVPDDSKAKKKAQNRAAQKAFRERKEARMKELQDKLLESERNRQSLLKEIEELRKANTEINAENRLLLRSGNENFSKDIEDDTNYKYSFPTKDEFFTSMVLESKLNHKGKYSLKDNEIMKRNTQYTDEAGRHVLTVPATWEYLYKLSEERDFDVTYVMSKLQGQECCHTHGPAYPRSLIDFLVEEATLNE
Assay: PBM E-score (8-mer binding enrichment) (E-score (-0.5 to 0.5)); higher = stronger / more preferred TF binding
Conditions: protein concentration: 100 nM; construct: GST-full length
The full ranking holds about 33,000 sequences; the median of “E-score (-0.5 to 0.5)” is about -0.0034, and the highest 2% start at about 0.25. The sample as a whole holds a higher share of the highest values than the screen did.
OBSERVABLE: PBM E-score

{"columns": ["MONOMER_SEQUENCE", "OBSERVABLE", "RESULT"],
 "data": [
  ["TTCTAAAA", "PBM E-score", 0.0712],
  ["CAATACAA", "PBM E-score", 0.187],
  ["ATATTTAA", "PBM E-score", 0.339],
  ["AGACAATG", "PBM E-score", 0.0142],
  ["TTAAATAA", "PBM E-score", 0.155],
  ["ATGGTATA", "PBM E-score", 0.262],
  ["CCGTGAGA", "PBM E-score", -0.162],
  ["ATCGACTA", "PBM E-score", 0.0167],
  ["AGCTGAAA", "PBM E-score", -0.101],
  ["AGCTTTCC", "PBM E-score", -0.0722],
  ["ACAGCCAT", "PBM E-score", -0.0294],
  ["AGATTACC", "PBM E-score", 0.155],
  ["AAAATGAT", "PBM E-score", 0.265],
  ["AAAATGAC", "PBM E-score", 0.13],
  ["AACCAGCG", "PBM E-score", -0.0042],
  ["GTAAATAC", "PBM E-score", 0.0284],
  ["CAAATGGA", "PBM E-score", -0.0854],
  ["ATGGTATG", "PBM E-score", 0.00998],
  ["CACATTAC", "PBM E-score", 0.276],
  ["GCGTCCCA", "PBM E-score", -0.121],
  ["ATATAAAT", "PBM E-score", 0.242],
  ["AACATTAC", "PBM E-score", 0.149],
  ["TAATACTA", "PBM E-score", 0.367],
  ["GACTAATA", "PBM E-score", 0.326],
  ["GTTTCATA", "PBM E-score", 0.0741],
  ["ATATTTAC", "PBM E-score", 0.208],
  ["AAAATGGA", "PBM E-score", 0.309],
  ["CTTGTATA", "PBM E-score", 0.127],
  ["AGACAATA", "PBM E-score", 0.339],
  ["AATATCAG", "PBM E-score", 0.121],
  ["CACATTAG", "PBM E-score", -0.0914],
  ["CCATCGTA", "PBM E-score", 0.0169],
  ["ATGGTATC", "PBM E-score", 0.175],
  ["ATTGTATG", "PBM E-score", 0.151],
  ["TAAGTAGA", "PBM E-score", 0.109],
  ["ATAATGGA", "PBM E-score", 0.188],
  ["GGCGGTGA", "PBM E-score", 0.132],
  ["TCGTCGAA", "PBM E-score", 0.0355],
  ["ACAGATCC", "PBM E-score", 0.145],
  ["CTAATGGA", "PBM E-score", -0.0109],
  ["AAAATCTA", "PBM E-score", 0.0549],
  ["GACTAATC", "PBM E-score", 0.175],
  ["GTGCAGCA", "PBM E-score", -0.204],
  ["AAATACTA", "PBM E-score", 0.141],
  ["ATCTACTA", "PBM E-score", 0.185],
  ["CGGTTTTA", "PBM E-score", -0.106]
]}
